TARGET_ENTITY: CAMK2B (human) (UniProt Q13554)
Sequence (Q13554 whole entry, looked up): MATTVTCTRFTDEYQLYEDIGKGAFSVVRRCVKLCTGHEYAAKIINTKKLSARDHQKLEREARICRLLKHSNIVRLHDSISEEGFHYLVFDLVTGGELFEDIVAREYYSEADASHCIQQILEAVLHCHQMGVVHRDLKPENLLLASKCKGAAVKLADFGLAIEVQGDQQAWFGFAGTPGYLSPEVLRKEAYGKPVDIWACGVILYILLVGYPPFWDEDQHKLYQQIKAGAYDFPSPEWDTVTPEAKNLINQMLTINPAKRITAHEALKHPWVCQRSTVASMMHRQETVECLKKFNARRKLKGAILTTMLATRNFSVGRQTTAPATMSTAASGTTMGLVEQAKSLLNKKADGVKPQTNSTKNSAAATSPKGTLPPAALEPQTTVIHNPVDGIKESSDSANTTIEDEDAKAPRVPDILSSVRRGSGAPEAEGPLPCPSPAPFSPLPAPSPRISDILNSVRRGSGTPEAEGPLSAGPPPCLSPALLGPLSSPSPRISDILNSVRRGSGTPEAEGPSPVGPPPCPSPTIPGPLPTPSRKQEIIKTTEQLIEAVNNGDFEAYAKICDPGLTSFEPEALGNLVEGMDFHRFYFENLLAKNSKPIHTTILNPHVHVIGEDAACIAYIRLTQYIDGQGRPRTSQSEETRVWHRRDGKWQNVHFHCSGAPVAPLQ
PROCEDURE_SUMMARY: radiometric filter-binding kinase assay, Kinase HotSpot
TEST_CONDITIONS: compound 0.5 µM; ATP 10 µM
REPORTED_ENDPOINT: residual activity (%)

| COMPOUND | REPORTED_ENDPOINT | RECORDED_MEASUREMENT |
| --- | --- | --- |
| CC(C)(C)c1nc2c3ccc(F)cc3c3c(=O)[nH]ccc3c2[nH]1 | residual activity | 73.4 |
| O=C(NC(NC(=S)Nc1ccc(F)c([N+](=O)[O-])c1)C(Cl)(Cl)Cl)C(c1ccccc1)c1ccccc1 (stereo not given) | residual activity | 104 |
| O=C1Cc2c([nH]c3ccc([N+](=O)[O-])cc23)-c2ccccc2N1 | residual activity | 98.1 |
| O=C1Nc2ccccc2/C1=C\c1c(Cl)[nH]c2ccccc12 | residual activity | 108 |
| CS(=O)c1ccc(-c2nc(-c3ccc(F)cc3)c(-c3ccncc3)[nH]2)cc1 (stereo not given) | residual activity | 97.6 |
| Cc1ccc(NC(=O)c2ccc(CN3CCN(C)CC3)cc2)cc1Nc1nc(-c2cccnc2)cs1 | residual activity | 100 |
| CCN1/C(=C/C(C)=O)Sc2ccc(OC)cc21 | residual activity | 102 |
| CSc1nc(-c2ccc(F)cc2)c(-c2ccnc(NC(C)c3ccccc3)c2)[nH]1 (stereo not given) | residual activity | 89.2 |
| Nc1nc(Nc2ccc(S(N)(=O)=O)cc2)nn1C(=S)Nc1c(F)cccc1F | residual activity | 9.5 |
| Nc1nc(Nc2ccc(S(N)(=O)=O)cc2)nn1C(=O)c1c(F)cccc1F | residual activity | 99.7 |
